# target-or-test-system: human D3 dopaminergic receptor (D3R) (Homo sapiens, UniProt P35462)
# Sequence (P35462 whole entry): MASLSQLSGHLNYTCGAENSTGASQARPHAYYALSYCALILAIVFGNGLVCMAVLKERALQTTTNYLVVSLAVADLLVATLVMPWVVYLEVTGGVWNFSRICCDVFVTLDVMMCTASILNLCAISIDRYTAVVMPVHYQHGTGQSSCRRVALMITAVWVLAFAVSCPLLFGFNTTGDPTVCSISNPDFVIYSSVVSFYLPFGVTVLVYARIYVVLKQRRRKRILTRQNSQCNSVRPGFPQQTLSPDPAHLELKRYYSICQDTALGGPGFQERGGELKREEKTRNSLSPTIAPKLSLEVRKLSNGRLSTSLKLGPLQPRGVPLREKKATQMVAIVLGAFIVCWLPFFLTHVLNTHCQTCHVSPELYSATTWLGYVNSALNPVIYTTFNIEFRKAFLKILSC
# assay-notes: Competition binding of [3H]-spiperone and GTP-shift (functional binding) in membranes of recombinant Chem-1 cells
# assay-context: classified from the Na+-shift (GTP-shift assay)
recorded-endpoint: Intrinsic Efficacy at D3R

- COc1ccccc1N1CCN(Cc2ccc(NS(=O)(=O)c3ccc4c(c3)OCO4)cc2)CC1: antagonist
- O=S(=O)(Nc1ccc(CN2CCN(c3ccccc3)CC2)cc1)c1ccc2c(c1)OCO2: partial agonist
- O=S(=O)(Nc1ccc(CN2CCN(c3cccc(Cl)c3Cl)CC2)cc1)c1ccc2c(c1)OCO2: partial agonist
- Cc1cc2c(cc1S(=O)(=O)Nc1ccc(CN3CCN(c4ccccc4)CC3)cc1)OCO2: antagonist
- Cc1cc2c(cc1S(=O)(=O)Nc1ccc(CN3CCN(c4cccc(Cl)c4Cl)CC3)cc1)OCO2: antagonist

Data origin, for the record: paper PMC9405847
